target: ScSla1-D1-D2; assay: SPOT peptide array binding signal intensity (averaged, normalized) (arbitrary units (background-subtracted, floor 0; scale differs between SH3 domains)); higher = stronger binding of the SH3 domain to the peptide
// values below are reported SPOT peptide array binding signal intensity
observedProperty: SPOT peptide array binding signal intensity

| binder | valueReported |
| --- | --- |
| NRARYLPQNPDIIAG | ≤ 0 |
| RPKRRAPPPVPKKPS | 3510 |
| PPPPPPPPPPLPQSL | 3.5 |
| EREKALPPIPFTTTL | ≤ 0 |
| NFFRKKLGIPRKLKR | 38.5 |
| TPTSGPPLLPPRNTM | 268 |
| KRRAPPPVPKKPSSR | 4950 |

The measurements presented in this section are drawn from the supplement of paper PMC4466140.
